Quick reference: inhibition of growth at 100 µM of the listed items.
System: Porphyromonas gingivalis
assayOverview: Antibacterial activity against Porphyromonas gingivalis 381 assessed as bacterial growth inhibition at 100 uM measured after 2 hrs in anaerobic condition by WST1 assay relative to control
Format: functional
experimentalContext: Porphyromonas gingivalis, 381, 2 h; read-out: GI
Write the figure, then the unit, nothing else.

// worked examples, inhibition of growth at 100 µM included
1) COc1ccc(Cc2cn(C)c3ccc([N+](=O)[O-])cc23)cc1C(=O)NS(=O)(=O)c1ccccc1C : 100%
2) COc1ccc(Cc2cn(C)c3ccccc23)cc1C(=O)NS(=O)(=O)c1ccccc1 : 100%
3) Cc1ccccc1S(=O)(=O)NC(=O)c1ccc(Cc2c[nH]c3ccccc23)cc1 : 100%

Continue with the molecule presented below.
Can you look up the measured inhibition of growth at 100 µM of "COc1cc(C(=O)NS(=O)(=O)c2ccccc2)ccc1Cc1cn(C)c2ccccc12" for me?
60%
